Target: T1, PUF4 RNA-binding domain (Saccharomyces cerevisiae, UniProt P25339 537-888)
T1 sequence: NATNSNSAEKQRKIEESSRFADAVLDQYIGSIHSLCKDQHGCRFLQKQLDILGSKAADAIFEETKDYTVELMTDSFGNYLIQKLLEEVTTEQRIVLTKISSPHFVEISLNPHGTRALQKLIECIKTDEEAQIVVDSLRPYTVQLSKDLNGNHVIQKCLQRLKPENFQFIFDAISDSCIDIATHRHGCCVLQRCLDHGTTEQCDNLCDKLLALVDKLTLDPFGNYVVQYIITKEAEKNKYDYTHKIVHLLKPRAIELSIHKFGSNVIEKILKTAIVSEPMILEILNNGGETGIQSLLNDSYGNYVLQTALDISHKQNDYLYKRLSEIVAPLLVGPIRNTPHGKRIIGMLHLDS
Assay: Mg; RNA-MaP; 20 mM Na-HEPES pH 7.4, 30 mM KOAc, 0.75 mM MgCl2, 0.1% Tween-20, 5% glycerol, 0.1 mg/mL BSA, 2 mM DTT; 25 C; 0.0125-409.6 nM protein
Details: tags: N-His6-TEV cleaved; C-SNAP kept, Cy3B-labelled; label: tethered on chip by stalled RNA polymerase
Readings of pKd for the listed binders
Just so you know, pKd here is -log10 of the concentration in molar units; reply with that number alone.

Measured pKd, Ic_S2_P4E.1_K4.1_C4.1_H4.1_A4.1_[T5C]_[A6C]_[T7C]_F4.1_[T8G]_[A9G]_T4.1 (ssRNA) RNA: UUUGAUUAAUAUGAUAUCGUUCUUUCUUGUACCCGGUUCUUUCUCGAUAUCAUAUUAAUCUUU : 6.07

According to the records, this binder Ib_S4_P5E.1_K5.1_C5.1_H5.1_A5.1_[T5A]_F5.1_[A10C]_T5.1 (ssRNA) RNA: UUUGACAACUGAUCGUUCUUUCUUGUAAUAUUCUUCUUUCUCGAUCAGUUGUCUUU displays pKd of 7.53

response.value for UCUCUUUGUACAAUGGUCUCUU (ssRNA) [Ic_S1_P5E.1_K5.1_C5.1_H5.1_A5.1_[T5C]_[T6A]_F5.1_[T9G]_[A10G]_T5.1] (field: pKd) = 7.90

For record Ie_S4_P4E.1_K4.1_C4.1_H4.1_A4.1_F4.1_[+9TCTC]_T4.1 (ssRNA) RNA: UUUGACAACUGAUCGUUCUUUCUUGUAUAUUAUCUCUUCUUUCUCGAUCAGUUGUCUUU the listed pKd is 9.44
